B1: library; numbered along this chain (parent)
chain: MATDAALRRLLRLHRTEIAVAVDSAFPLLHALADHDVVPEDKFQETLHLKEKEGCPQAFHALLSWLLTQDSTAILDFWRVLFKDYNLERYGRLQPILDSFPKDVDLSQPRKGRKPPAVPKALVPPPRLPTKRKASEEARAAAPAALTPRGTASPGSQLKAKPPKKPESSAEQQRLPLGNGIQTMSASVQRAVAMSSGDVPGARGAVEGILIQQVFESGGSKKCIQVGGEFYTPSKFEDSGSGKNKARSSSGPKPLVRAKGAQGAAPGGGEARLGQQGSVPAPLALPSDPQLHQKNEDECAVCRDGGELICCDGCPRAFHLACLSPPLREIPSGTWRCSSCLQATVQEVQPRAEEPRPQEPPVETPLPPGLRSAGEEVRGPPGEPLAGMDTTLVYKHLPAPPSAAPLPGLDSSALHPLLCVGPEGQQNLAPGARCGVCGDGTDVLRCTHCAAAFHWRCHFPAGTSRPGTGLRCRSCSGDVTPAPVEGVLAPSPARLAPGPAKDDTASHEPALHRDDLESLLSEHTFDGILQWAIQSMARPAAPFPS

# Variants of: B1
# run_description: AIRE transcriptional activation functional score (insulin promoter-GFP; nonsense median 0, synonymous median 1) (normalised score); higher = higher AIRE activity (more reporter activation)
# condition: with insulin promoter-GFP reporter in HEK293
Outcome: YES for AIRE transcriptional activation functional score of at least 1; NO for anything lower.

• H14R = NO
• T334F = YES
• P361I = YES
• L175Y = YES

Turning to the following variant.
Ask: API: above_or_equal(metric=AIRE transcriptional activation functional score, cutoff=1) for item `L75W`
Reply: YES
